From: ChEMBL document CHEMBL1128352

tested on: Cricetinae gen. sp.; assay: In vivo effect on cholesteryl esters level of cholesterol-fed hamsters at a dose of 50 mg/kg per oral; format: functional
Measured Change values are reported for all entries that follow.
Don't forget the unit after the number, please.

# compound, Change
measured = [
    ("O=C(O)c1ccc(C(Cc2ccccc2)NC(=O)C(c2ccccc2)c2ccccc2)cc1 (stereo not given)", "0%"),
    ("COc1ccc(CC(NC(=O)C(c2ccccc2)c2ccccc2)c2ccccc2)cc1OC (stereo not given)", "-26%"),
    ("O=C(NC(Cc1ccccc1)c1ccc(O)cc1)C(c1ccccc1)c1ccccc1 (stereo not given)", "-69%"),
    ("COc1ccccc1C(Cc1ccccc1)NC(=O)C(c1ccccc1)c1ccccc1 (stereo not given)", "-51%"),
]

Now consider a different compound.
Qu. Give Change for O=C(NC(Cc1ccccc1)c1cccnc1)C(c1ccccc1)c1ccccc1 (stereo not given) tested on Cricetinae gen. sp..
Ans. 0%
